Ref: ChEMBL document CHEMBL1154866

# System: 3T3-L1
# ASSAY_INFO: Cytotoxicity against mouse 3T3L1 cells at 80 ug/ml after 2 days by MTT assay
# Type: cell-based
# CONDITION: 3t3-l1, 48 h
OBSERVED_PROPERTY: Activity

[
  {
    "MOLECULE": "CCCCOC(=O)CC[C@@H](C)[C@H]1CC(=O)[C@@]2(C)C3=C(C(=O)C[C@]12C)[C@@]1(C)CCC(=O)C(C)(C)[C@@H]1C[C@@H]3O [BUTYL LUCIDENATE A]",
    "RESULT": "Toxic"
  },
  {
    "MOLECULE": "COC(=O)C(C)CC(=O)C[C@@H](C)[C@H]1C[C@H](O)[C@@]2(C)C3=C(C(=O)C[C@]12C)[C@@]1(C)CCC(=O)C(C)(C)[C@@H]1C[C@@H]3O (stereo not given in full) [METHYL GANODERATE A]",
    "RESULT": "Toxic"
  },
  {
    "MOLECULE": "CC(CC(=O)C[C@@H](C)[C@H]1C[C@H](O)[C@@]2(C)C3=C(C(=O)C[C@]12C)[C@@]1(C)CCC(=O)C(C)(C)[C@@H]1CC3)C(=O)O (stereo not given in full)",
    "RESULT": "Toxic"
  },
  {
    "MOLECULE": "CCCCOC(=O)C(C)CC(=O)C[C@@H](C)[C@H]1C[C@H](O)[C@@]2(C)C3=C(C(=O)C[C@]12C)[C@@]1(C)CCC(=O)C(C)(C)[C@@H]1C[C@@H]3O (stereo not given in full) [BUTYL GANODERATE A]",
    "RESULT": "Toxic"
  }
]

--- query ---
Q. So what does the record say about Activity for COC(=O)CC[C@@H](C)[C@H]1CC(=O)[C@@]2(C)C3=C(C(=O)C[C@]12C)[C@@]1(C)CCC(=O)C(C)(C)[C@@H]1C[C@@H]3O [METHYL LUCIDENATE A] ?
A. Toxic
